target: T1, cynomolgus CCR8 (cynomolgus, UniProt G7NYJ2 1-355); assay: FACS on ExpiCHO-S-cynomolgus CCR8 cells
T1 construct: whole, on cells
T1 sequence (G7NYJ2 entry or part of it): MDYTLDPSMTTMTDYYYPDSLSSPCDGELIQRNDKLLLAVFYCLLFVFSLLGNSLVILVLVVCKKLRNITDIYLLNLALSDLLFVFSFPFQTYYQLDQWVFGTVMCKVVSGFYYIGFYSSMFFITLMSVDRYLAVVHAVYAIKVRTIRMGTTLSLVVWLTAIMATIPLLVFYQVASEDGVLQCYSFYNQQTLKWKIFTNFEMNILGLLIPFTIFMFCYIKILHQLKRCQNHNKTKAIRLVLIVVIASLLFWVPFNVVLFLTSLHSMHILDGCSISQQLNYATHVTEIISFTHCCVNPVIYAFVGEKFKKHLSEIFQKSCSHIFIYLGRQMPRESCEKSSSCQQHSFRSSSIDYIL
Known Max MFI of a selection of binders
Write down the numeric answer in MFI and omit the unit.

Binder	Max MFI / MFI
Hu348-9 (antibody, V domains shown, humanized IgG) VH: EVQLVESGGGLVQPGGSLKLSCATSGFSFSNYRMHWLRQASGKGLEWVGVITVKSDNYGANYAASVKGRFTISRDDSKSSVYLQMNSLKTEDTAVYYCTSLGRVAYWGQGTLVTVSS VL: DIQMTQSPSSVSASVGDRVTITCKASQNVDTNVVWYQQKPGQSPKALIYSASSRYSGVPDRFSGSGSGTDFTLTISSLQPEDFATYYCQQHNSFPLTFGQGTKLEIK	148

Would you kindly look at the next entry?
Enquiry: Fill in the blank: the reported Max MFI of Hu348-6 (antibody, V domains shown, humanized IgG) VH: EVQLVESGGGLVQPGGSLKLSCATSGFSFSNYRMHWVRQASGKGLEWVGVITVKSDNYGANYAASVKGRFTISRDDSKSSVYLQMNSLKTEDTAVYYCSSLGRVAYWGQGTLVTVSS VL: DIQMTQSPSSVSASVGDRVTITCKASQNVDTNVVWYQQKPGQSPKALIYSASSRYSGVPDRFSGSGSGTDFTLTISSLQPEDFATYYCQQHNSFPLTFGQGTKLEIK is ____.
Return: 82
